target: B. taurus (heart) complex I (Bos taurus, UniProt P03887+P17694+P42026); experiment: biochemical; type: biochemical; conditions: log10 of IC50 in µM; B. taurus mitochondria
Sequence (P03887 whole entry): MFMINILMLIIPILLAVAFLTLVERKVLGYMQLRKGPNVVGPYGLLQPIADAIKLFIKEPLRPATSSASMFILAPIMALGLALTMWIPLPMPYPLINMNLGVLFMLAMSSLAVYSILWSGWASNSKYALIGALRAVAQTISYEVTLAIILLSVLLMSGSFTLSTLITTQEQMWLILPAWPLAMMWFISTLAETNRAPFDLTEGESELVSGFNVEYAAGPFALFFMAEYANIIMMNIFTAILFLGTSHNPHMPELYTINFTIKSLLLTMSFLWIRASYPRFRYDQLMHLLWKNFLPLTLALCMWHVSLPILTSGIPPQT
Sequence (P17694 34-463): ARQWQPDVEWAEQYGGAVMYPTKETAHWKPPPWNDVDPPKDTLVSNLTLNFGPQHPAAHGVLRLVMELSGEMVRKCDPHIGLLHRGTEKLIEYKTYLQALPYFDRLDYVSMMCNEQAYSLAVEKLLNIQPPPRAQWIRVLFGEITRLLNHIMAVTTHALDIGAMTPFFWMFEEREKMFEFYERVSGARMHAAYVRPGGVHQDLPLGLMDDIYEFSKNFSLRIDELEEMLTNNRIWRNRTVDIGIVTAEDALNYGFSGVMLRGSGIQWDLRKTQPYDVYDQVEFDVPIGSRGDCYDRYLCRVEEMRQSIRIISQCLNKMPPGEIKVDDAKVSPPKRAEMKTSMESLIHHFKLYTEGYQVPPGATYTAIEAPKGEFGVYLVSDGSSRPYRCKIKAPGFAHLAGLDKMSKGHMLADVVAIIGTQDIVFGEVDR
Sequence (P42026 38-216): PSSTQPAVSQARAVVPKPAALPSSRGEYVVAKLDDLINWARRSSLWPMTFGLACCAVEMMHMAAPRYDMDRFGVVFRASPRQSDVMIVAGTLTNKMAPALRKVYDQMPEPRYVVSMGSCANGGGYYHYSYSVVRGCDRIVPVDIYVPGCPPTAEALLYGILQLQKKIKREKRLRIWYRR
ASSAY_METRIC: Log IC50 B. taurus complex I (µM)
Report as a plain number; the unit µM is understood.

# get_value(readout='Log IC50 B. taurus complex I', item= Cc1ccc(SCCCCn2cnc3ccccc32)cc1 )
0.86

# get_value(readout='Log IC50 B. taurus complex I', item= Nc1nc2ccccc2n1CCOc1ccc(Br)cc1 )
1.10

###

Measured IC50 values are reported for all entries that follow.
biological target: B. taurus (heart) complex I (Bos taurus, UniProt P03887+P17694+P42026); assay: biochemical; type: biochemical; details: B. taurus heart mitochondria; estimated from fitted dose-response curves; read-out: B. taurus Complex I IC50
Just the number plus its unit, please.

1) Cc1nc2ccccc2n1Cc1ccc(C(C)C)cc1: 1.57 µM
2) C=CCn1c(C(C)c2ccc(CC(C)C)cc2)nc2ccccc21 (stereo not drawn): 16.8 µM
3) Cc1ccccc1OCCCCn1cnc2ccccc21: 0.31 µM
4) Nc1nc2ccccc2n1Cc1ccc(Cl)cc1: 2.27 µM
5) c1ccc(CCCCCCCCCCc2nc3ccccc3[nH]2)cc1: 3.32 µM

# get_value(readout='IC50', item= Cc1ccc(Cn2c(C)nc3ccccc32)cc1 )
0.99 µM

# get_value(readout='IC50', item= Clc1ccccc1OCCCCn1cnc2ccccc21 )
1.35 µM

# get_value(readout='IC50', item= CCn1c(C(C)c2ccc(CC(C)C)cc2)nc2ccccc21 (stereo not drawn) )
12.5 µM

# get_value(readout='IC50', item= Cc1ccccc1OCCCn1c(C)nc2ccccc21 )
6.67 µM

###

Measured activity at 0.005 µM values are reported for all entries that follow.
target: C. elegans (N2) complex I (NADH:ubiquinone oxidoreductase) (Caenorhabditis elegans, UniProt P24887+Q93873+Q94360); experiment: biochemical; type: biochemical; details: Dose 0.005 µM; read-out: C. elegans mitochondrial complex I activity
Sequence (Q94360 17-199): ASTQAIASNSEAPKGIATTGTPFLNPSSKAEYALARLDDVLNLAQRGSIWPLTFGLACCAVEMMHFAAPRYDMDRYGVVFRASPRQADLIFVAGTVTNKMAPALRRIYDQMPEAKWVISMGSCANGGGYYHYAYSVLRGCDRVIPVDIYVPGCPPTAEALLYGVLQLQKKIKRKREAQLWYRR
Sequence (P24887 whole entry): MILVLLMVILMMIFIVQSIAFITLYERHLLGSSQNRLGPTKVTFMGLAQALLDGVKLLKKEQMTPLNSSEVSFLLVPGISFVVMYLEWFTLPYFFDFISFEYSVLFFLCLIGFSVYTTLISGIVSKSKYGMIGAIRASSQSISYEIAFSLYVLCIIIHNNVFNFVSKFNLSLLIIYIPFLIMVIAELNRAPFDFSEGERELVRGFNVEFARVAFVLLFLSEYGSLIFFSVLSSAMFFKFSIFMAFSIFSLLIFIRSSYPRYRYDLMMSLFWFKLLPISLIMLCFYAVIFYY
Sequence (Q93873 31-482): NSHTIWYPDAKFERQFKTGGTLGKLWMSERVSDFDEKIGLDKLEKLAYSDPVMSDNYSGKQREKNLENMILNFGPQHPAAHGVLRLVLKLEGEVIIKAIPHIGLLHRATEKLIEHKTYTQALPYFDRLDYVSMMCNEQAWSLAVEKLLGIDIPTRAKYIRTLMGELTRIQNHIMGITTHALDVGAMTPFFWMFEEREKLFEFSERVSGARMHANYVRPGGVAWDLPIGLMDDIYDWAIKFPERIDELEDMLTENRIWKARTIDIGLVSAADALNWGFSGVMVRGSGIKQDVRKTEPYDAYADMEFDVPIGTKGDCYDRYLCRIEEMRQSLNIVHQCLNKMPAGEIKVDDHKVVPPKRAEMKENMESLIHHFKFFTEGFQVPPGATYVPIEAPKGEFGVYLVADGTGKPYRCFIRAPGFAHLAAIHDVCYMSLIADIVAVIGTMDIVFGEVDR
Report as a plain number; the unit % is understood.

Completed entries (count: 3):
1) Cc1ccc(SCCCCn2cnc3ccccc32)cc1 [Compound 7925333]: 100
2) CCCn1c(COc2ccc(C)cc2)nc2ccccc21 [Compound 6944471]: 90.8
3) Cc1ccccc1OCCCn1c(C)nc2ccccc21 [Compound 7916923]: 96.8

# get_value(readout='activity at 0.005 µM', item= Clc1ccccc1OCCCCn1cnc2ccccc21 [Compound 7925804] )
93.4

###

Measured activity at 1.5 µM values are reported for all entries that follow.
target: B. taurus (heart) complex I (Bos taurus, UniProt P03887+P17694+P42026); assay: biochemical; assay type: biochemical; conditions: Dose 1.5 µM; read-out: B. taurus mitochondrial complex I activity
Report as a plain number; the unit % is understood.

Completed entries (count: 2):
1. Cc1ccc(SCCCCn2cnc3ccccc32)cc1: 78.5
2. Cc1ccc(SCCCn2cnc3ccccc32)cc1: 78.8

Note: attention shifts to another entry.
# get_value(readout='activity at 1.5 µM', item= Cc1ccc(OCCn2cnc3ccccc32)c(C)c1 )
81.2

###

target: C. elegans (N2) complex I (NADH:ubiquinone oxidoreductase) (Caenorhabditis elegans, UniProt P24887+Q93873+Q94360); assay: biochemical; assay type: biochemical; conditions: Dose 1.5 µM; read-out: C. elegans mitochondrial complex I activity
Measured activity at 1.5 µM determines class: class A = under 30%, class B = from 30% up to 60%, class C = 60% and over

Record excerpt, results attached:
1. Clc1ccc(Cn2cnc3ccccc32)c(Cl)c1: class A
2. Cc1nc2ccccc2n1Cc1ccc(Cl)c(Cl)c1: class A
3. Cc1cccc(OCCn2c(C)nc3ccccc32)c1: class B

Sort Cc1ccc(SCCCCn2cnc3ccccc32)cc1 into one of the categories.
class B

Sort Cc1ccc(C(C)C)c(OCC(O)Cn2cnc3ccccc32)c1 (stereo not drawn) into one of the categories.
class A

Reference source: paper PMC11079024
